Target: T1, VcPHR (CPD photolyase, MBP fusion) (Vibrio cholerae, UniProt Q9KNA8 1-469)
T1 sequence: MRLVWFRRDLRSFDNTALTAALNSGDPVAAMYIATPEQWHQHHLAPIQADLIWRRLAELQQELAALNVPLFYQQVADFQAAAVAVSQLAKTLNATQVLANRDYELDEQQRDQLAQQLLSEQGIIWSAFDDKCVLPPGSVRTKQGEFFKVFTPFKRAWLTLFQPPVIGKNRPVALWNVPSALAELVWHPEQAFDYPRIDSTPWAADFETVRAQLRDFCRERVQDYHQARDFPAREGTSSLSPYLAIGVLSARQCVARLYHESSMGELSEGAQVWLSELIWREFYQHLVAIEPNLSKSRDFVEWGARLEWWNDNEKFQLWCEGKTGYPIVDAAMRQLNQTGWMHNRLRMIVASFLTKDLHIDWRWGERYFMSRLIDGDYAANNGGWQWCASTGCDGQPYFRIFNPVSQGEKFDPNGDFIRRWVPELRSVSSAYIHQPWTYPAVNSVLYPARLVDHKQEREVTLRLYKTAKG
Experiment: SPR; photoactivated, DTT; repair during injection; SPR (SensiQ Discovery, neutravidin BioCap chip), 1X PBS (10 mM phosphate, 2.7 mM KCl, 137 mM NaCl) pH 7.4, 0.005% Tween 20, 25 C, 50 uL/min; protein in PBS with 1 mM DTT
Settings: protein: recombinant; tags: MBP (pMal-c2x, pUNC2001); label: 5'-biotin
measured property: Kd (nM)

binder="GACGCAGATCTACGAATTCGCTTAATTCGCTGCACCGGATCCCGCTAG (ssDNA, UV 254 nm irradiated, mostly CPD (mixed lesions, positions not defined)) [UV-damaged ssDNA 48-mer]" units=nM value_reported=1.2
